- tgt: Histone acetyltransferase p300/Hypoxia-inducible factor 1-alpha (Homo sapiens, UniProt Q09472+Q16665)
- Sequence (Q09472 whole entry, the tested form may be a part): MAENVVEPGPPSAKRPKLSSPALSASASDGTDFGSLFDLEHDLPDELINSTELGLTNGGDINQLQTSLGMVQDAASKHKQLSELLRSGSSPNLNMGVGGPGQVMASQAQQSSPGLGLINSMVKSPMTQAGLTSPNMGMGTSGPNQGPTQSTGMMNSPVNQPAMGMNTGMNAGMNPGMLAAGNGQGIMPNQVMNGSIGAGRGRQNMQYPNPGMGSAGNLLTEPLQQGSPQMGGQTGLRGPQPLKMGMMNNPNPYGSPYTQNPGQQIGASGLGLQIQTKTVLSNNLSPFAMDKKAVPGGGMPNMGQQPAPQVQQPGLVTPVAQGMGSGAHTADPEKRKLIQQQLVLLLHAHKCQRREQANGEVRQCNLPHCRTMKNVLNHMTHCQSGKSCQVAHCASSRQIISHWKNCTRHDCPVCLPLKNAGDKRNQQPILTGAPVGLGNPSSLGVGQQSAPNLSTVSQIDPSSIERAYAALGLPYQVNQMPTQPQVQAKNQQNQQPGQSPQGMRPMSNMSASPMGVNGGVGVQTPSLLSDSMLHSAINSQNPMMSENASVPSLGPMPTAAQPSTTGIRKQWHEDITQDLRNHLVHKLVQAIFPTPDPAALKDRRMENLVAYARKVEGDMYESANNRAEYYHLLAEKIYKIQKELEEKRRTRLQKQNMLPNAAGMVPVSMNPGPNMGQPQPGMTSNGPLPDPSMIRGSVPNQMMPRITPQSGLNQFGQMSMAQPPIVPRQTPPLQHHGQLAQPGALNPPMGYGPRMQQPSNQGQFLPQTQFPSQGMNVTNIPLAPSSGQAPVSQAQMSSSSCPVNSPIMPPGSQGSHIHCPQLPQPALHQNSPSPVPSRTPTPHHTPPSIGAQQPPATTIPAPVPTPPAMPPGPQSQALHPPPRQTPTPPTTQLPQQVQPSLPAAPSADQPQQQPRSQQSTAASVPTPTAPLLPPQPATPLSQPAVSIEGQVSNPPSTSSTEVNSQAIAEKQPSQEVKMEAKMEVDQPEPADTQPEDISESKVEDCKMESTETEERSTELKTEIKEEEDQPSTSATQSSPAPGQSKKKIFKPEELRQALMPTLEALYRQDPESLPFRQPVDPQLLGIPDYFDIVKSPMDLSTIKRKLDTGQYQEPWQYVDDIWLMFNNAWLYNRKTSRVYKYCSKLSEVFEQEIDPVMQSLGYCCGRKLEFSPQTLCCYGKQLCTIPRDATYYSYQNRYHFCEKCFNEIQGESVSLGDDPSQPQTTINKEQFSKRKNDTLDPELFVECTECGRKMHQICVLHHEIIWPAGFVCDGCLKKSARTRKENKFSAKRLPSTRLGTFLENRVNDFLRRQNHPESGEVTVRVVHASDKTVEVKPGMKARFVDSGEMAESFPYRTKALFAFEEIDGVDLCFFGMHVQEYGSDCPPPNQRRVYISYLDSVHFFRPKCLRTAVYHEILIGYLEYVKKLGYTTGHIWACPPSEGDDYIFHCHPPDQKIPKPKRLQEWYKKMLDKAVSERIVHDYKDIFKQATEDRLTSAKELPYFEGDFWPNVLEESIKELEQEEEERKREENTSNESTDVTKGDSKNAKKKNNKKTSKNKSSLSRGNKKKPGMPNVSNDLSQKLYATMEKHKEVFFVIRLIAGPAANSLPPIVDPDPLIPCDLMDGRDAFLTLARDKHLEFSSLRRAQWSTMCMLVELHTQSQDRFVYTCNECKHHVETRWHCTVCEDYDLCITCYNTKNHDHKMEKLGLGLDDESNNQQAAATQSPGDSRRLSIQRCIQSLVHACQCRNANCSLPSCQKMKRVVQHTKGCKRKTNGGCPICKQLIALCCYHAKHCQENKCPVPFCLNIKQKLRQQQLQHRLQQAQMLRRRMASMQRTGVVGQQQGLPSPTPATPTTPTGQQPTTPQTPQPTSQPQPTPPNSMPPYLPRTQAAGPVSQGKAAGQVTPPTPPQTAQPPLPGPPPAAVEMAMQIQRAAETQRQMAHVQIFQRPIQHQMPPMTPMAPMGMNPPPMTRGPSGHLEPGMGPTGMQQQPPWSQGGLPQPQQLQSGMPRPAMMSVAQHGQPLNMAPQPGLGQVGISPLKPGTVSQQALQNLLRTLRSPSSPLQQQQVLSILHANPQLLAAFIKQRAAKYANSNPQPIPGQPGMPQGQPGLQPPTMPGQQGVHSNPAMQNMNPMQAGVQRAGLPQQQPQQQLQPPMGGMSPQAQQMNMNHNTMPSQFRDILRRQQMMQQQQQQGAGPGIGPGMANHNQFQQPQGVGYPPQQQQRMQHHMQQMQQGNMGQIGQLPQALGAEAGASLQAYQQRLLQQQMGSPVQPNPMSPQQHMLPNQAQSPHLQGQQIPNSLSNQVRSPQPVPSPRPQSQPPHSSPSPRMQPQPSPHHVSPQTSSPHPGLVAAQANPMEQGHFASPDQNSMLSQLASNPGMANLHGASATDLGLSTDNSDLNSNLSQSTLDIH
- Sequence (Q16665 whole entry, the tested form may be a part): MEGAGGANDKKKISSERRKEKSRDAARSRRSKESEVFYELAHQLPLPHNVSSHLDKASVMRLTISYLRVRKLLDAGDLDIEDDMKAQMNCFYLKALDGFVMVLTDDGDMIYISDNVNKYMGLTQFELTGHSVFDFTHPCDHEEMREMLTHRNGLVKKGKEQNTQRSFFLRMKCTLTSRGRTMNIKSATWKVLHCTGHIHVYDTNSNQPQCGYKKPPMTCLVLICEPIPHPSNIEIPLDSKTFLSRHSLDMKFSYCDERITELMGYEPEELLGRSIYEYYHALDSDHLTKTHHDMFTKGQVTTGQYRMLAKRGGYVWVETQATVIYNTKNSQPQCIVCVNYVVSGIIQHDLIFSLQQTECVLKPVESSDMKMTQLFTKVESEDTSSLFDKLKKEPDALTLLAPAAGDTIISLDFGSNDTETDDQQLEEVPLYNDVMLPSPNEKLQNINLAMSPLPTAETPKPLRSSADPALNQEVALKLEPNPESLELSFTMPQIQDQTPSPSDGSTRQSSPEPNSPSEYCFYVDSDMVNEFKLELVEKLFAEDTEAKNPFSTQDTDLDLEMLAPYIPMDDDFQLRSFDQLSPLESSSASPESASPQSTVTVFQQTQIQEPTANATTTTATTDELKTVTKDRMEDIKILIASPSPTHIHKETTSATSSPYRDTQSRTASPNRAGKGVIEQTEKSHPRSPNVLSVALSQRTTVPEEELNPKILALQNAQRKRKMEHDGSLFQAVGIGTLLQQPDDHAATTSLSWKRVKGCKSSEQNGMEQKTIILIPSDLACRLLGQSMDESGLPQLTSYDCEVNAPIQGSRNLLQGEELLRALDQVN
- assay notes: Inhibition of human C-terminal activation domain of HIF-1alpha/CH1 domain of GST-p300 interaction using F-786-826 by fluorescence polarization based assay

molecule: CC(C)Cc1cc(CNC(=O)N2CCN(CC(=O)Nc3ccccc3Cl)CC2)nn1-c1ccccc1.Cl
IC50 [µM]: 107

The reported measurements were obtained from ChEMBL document CHEMBL2057094.
